# Tested on: Digitaria sanguinalis
# Procedure text: Herbicidal activity against Digitaria sanguinalis (hairy crabgrass) assessed as inhibition of root growth at 100 ppm after 6 days by flat-utensil method relative to control
# Format: functional
# Test context: 144 h, read-out: GI
# binarize inhibition of growth at 100 ppm: threshold 60% inclusive, high side yes (1), low side no (0)

Does the reported inhibition of growth at 100 ppm for Cc1cc(C)n2s/c(=N\C(=O)C(c3ccc(Cl)cc3)C(C)C)nc2n1 (racemic) fall at or above the 60% mark? yes (1)

Same read-out for COc1cc(OC)n2s/c(=N\C(=O)[C@H](c3ccc(Cl)cc3)C(C)C)nc2n1 ? yes (1)

Same read-out for Cc1cc(C)n2s/c(=N\C(=O)[C@H](c3ccc(Cl)cc3)C(C)C)nc2n1 ? yes (1)

Same read-out for COc1cc(Cl)n2s/c(=N\C(=O)[C@H](c3ccc(Cl)cc3)C(C)C)nc2n1 ? no (0)

Same read-out for Cc1cc(O)n2s/c(=N\C(=O)[C@H](c3ccc(Cl)cc3)C(C)C)nc2n1 ? no (0)

Same read-out for CC(C)[C@H](C(=O)/N=c1/nc2nc(Cl)cc(Cl)n2s1)c1ccc(Cl)cc1 ? no (0)

Same read-out for Cc1cc(Cl)n2s/c(=N\C(=O)[C@H](c3ccc(Cl)cc3)C(C)C)nc2n1 ? no (0)
